- MEASURED_ON: Human 2B (Homo sapiens)
- Sequence (P41595 whole entry): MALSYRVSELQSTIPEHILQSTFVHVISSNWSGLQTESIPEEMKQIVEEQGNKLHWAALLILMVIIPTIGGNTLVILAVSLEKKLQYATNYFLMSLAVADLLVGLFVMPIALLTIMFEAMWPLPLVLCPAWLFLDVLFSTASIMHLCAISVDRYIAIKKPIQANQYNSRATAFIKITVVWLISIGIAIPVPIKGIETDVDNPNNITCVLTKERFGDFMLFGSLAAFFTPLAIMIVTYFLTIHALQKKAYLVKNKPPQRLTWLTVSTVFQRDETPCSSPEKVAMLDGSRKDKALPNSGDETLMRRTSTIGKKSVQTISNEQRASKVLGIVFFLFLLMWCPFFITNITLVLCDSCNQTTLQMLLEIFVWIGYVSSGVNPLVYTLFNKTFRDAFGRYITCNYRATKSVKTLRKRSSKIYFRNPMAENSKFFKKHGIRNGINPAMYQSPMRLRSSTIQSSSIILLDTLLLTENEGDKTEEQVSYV
pKi: −log10 of the molar value.
Below is a list of entries, each paired with its recorded pKi value.
MEASURED_ENDPOINT: pKi

INSERT INTO assay_data (compound, measured_endpoint, endpoint_result) VALUES
  ('COc1ccc([C@@H](C)[C@@H]2NCCc3c2[nH]c2ccc(C)cc32)cc1OC (relative stereo)', 'pKi', 8.85),
  ('COc1ccc([C@@H](C)[C@@H]2NCCc3c2[nH]c2cc(C)c(C)cc32)cc1OC (relative stereo)', 'pKi', 8.70),
  ('CC[C@H](c1ccc(OC)c(OC)c1)[C@@H]1NCCc2c1[nH]c1ccc(C)cc21 (relative stereo)', 'pKi', 9.06);
